Each record here notes measured Dose.FC.CTG.
Tested on: ENR+CD organoids
TEST DETAILS: Primary screen: ATP (CellTiter-Glo 3D, CTG) cell number/viability, 2.5-D 384-well ENR+CD organoids
CONDITION LABEL: primary screen, dose 0.40 uM
RECORDED ENDPOINT: Dose.FC.CTG (log2 fold change)

• CCc1cccc2c3c([nH]c12)C(CC)(CC(=O)O)OCC3 (stereo not shown) [Etodolac] = 0.049
• O=C(O)c1cc2cccc([N+](=O)[O-])c2[nH]1 [CRT0044876] = −0.040
• CCC(CC)CC1(C(=O)Nc2ccccc2SC(=O)C(C)C)CCCCC1 [Dalcetrapib (JTT-705, RO4607381)] = −0.006
• Cn1c(=O)cc(N2CCC[C@@H](N)C2)n(Cc2cc(F)ccc2C#N)c1=O [Trelagliptin] = −0.076

====

Test system: ENR+CD organoids
TEST DETAILS: Primary screen: ATP (CellTiter-Glo 3D, CTG) cell number/viability, 2.5-D 384-well ENR+CD organoids;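 note: compounds given at plating and again on day 3 over a 6-day differentiation from ENR+CV stem-cell-enriched precursors, ATP measured on day 6, plate median as control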
CONDITION LABEL: primary screen, dose 10.00 uM
Counter-ions that a name gives are not always drawn.
RECORDED ENDPOINT: Dose.FC.CTG (log2 fold change)

• CCc1cc(Nc2nccc(-c3c(-c4ccc(OC)c(C(=O)Nc5c(F)cccc5F)c4)nc4ccccn34)n2)c(OC)cc1N1CCC(N2CCN(S(C)(=O)=O)CC2)CC1 [GSK1904529A] = −0.691
• CC1=C(C(=O)Nc2cc3cn[nH]c3cc2F)C(c2ccc(C(F)(F)F)cc2)CC(=O)N1 (stereo not drawn) [GSK429286A] = 0.370
• Cc1cc(Nc2cc(CN3CCOCC3)c3nc(C)c(Cc4ccc(Cl)cc4F)n3n2)n[nH]1 [LY2784544] = −0.831
• C[C@@H](Oc1cc(-n2cnc3ccc(CN4CCN(C)CC4)cc32)sc1C(N)=O)c1ccccc1C(F)(F)F [GSK461364] = −0.621
• COc1ccc2c(c1)C(=O)N(CCc1ccc(S(=O)(=O)NC(=O)NC3CCCCC3)cc1)C(=O)C2(C)C [Gliquidone] = 0.134
• Cc1ccc(S(=O)(=O)NC(=O)NN2CC3CCCC3C2)cc1 (stereo not drawn) [Gliclazide] = −0.092
• CC(C)c1noc(N2CCC(COc3ccc(-c4ccc(S(C)(=O)=O)cc4)nc3)CC2)n1 [GSK1292263] = 0.196
• Cc1noc(-c2ccc(CSCCC(=O)O)cc2)c1NC(=O)OC(C)c1ccccc1Cl (stereo not drawn) [Ki16425] = −0.165
• COC(=O)CCSCc1ccc(-c2onc(C)c2NC(=O)OC(C)c2ccccc2Cl)cc1 (stereo not drawn) [Ki16198] = 0.022
• COc1cc(-n2c(=S)[nH]c3ccccc3c2=O)c(Cl)cc1Cl [Mdivi-1] = −0.527
• O=C(Nc1ccccc1)N1CCN(c2nc(-c3ccccc3)ns2)CC1 [JNJ-1661010] = −0.145
• CCN(CC)CC(=O)Nc1c(C)cccc1C [Lidocaine] = −0.256
• C[C@H](NC(=O)[C@@H](O)c1cc(F)cc(F)c1)C(=O)N[C@@H]1C(=O)N(C)c2ccccc2-c2ccccc21 [LY411575] = −0.259
• CCc1c2c(nc3ccc(OC(=O)N4CCC(N5CCCCC5)CC4)cc13)-c1cc3c(c(=O)n1C2)COC(=O)[C@]3(O)CC [Irinotecan HCl Trihydrate] = −0.588
• CCCCc1nc(Cl)c(CO)n1Cc1ccc(-c2ccccc2-c2nnn[n-]2)cc1.[K+] [Losartan Potassium (DuP 753)] = −0.137
• NC(=O)c1ccc(I)c([N+](=O)[O-])c1 [Iniparib (BSI-201)] = 0.244
• CC#CCn1c(N2CCC[C@@H](N)C2)nc2c1c(=O)n(Cc1nc(C)c3ccccc3n1)c(=O)n2C [Linagliptin] = −0.011
• Cl.O=C(O)Cc1cccc(OCCCN(Cc2cccc(C(F)(F)F)c2Cl)CC(c2ccccc2)c2ccccc2)c1 [GW3965 HCl] = −0.078
• O=C(O)CNC(=O)c1c(O)c2ccccc2n(Cc2ccccc2)c1=O [IOX2] = 0.001
• COc1ccc2c(c1)c(C1=C(c3c[nH]c4ccccc34)C(=O)NC1=O)cn2CCCN(C)C [Go 6983] = −0.181
• CC(C)(C)Cn1c(N)nc2ccc(-c3[nH]c(C(C)(C)C)nc3-c3ccc(F)cc3)nc21 [LY2228820] = −0.332
